Cited source: patent US20250197372A1

Biological target: recombinant human GBA (beta-glucocerebrosidase) (Homo sapiens, UniProt P04062)
Sequence (P04062 40-536): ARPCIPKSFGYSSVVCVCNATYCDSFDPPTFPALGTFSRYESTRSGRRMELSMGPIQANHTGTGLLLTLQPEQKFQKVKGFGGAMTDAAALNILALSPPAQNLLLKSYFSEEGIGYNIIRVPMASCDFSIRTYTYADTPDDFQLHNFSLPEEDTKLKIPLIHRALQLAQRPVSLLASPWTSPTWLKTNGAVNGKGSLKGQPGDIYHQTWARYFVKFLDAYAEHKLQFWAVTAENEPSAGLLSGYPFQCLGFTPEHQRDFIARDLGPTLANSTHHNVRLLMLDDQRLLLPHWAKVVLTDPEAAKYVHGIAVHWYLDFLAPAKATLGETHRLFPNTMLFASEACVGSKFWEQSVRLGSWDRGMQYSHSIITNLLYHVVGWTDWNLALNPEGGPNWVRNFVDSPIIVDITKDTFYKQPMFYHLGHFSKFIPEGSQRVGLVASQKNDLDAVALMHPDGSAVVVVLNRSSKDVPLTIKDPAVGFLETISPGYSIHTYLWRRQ
Assay: Beta-glucocerebrosidase (GBA, glucosylceramidase) assay (4-methylumbelliferyl-beta-D-pyranoside substrate, fluorescence)
pIC50: −log10 of the molar value.
reported endpoint: pIC50

Below are worked cases with known answers.
Nc1ccc(NCCn2cc(CCN3C[C@H](O)[C@@H](O)[C@H](O)[C@H]3CO)nn2)c([N+](=O)[O-])c1Cl [Compound 1253]	< 4.00
Cc1cc(NCc2cccc(CN3C[C@H](O)[C@@H](O)[C@H](O)[C@H]3CO)n2)cc(N2CCOCC2)c1 [Compound 1336]	< 4.00

Quickly give me recorded pIC50 for Nc1ccc(NCCCCCCCCN2C[C@H](O)[C@@H](O)[C@H](O)[C@H]2CO)c([N+](=O)[O-])c1Cl [Compound 1277]
> 8.00

Quickly give me recorded pIC50 for N#Cc1cc(NCc2ccc(CN3C[C@H](O)[C@@H](O)[C@H](O)[C@H]3CO)cc2)cc(-c2ccc[nH]2)c1 [Compound 1063]
< 4.00

----------
Biological target: recombinant human GBA (beta-glucocerebrosidase) (Homo sapiens, UniProt P04062)
Assay: Beta-glucocerebrosidase (GBA, glucosylceramidase) assay (4-methylumbelliferyl-beta-D-pyranoside substrate, fluorescence)
pIC50: −log10 of the molar value.
Mark Not fulfilled for pIC50 values under 5, and Fulfilled for everything at or above.

CN(C)Cc1ccc(NCCCCCCN2C[C@H](O)[C@@H](O)[C@H](O)[C@H]2CO)c(C#N)c1	Fulfilled
Cc1nc2cc(-c3ncccn3)ccc2n1CCCCCCN1C[C@H](O)[C@@H](O)[C@H](O)[C@H]1CO	Fulfilled
COc1cc(-c2ncco2)ccc1NCCCCCCN1C[C@H](O)[C@@H](O)[C@H](O)[C@H]1CO	Fulfilled
O=[N+]([O-])c1cc(-c2cccnn2)ccc1NCCc1ccc(CCN2C[C@H](O)[C@@H](O)[C@H](O)[C@H]2CO)cc1	Fulfilled
Nc1ccc(NCCc2ccccc2CCN2C[C@H](O)[C@@H](O)[C@H](O)[C@H]2CO)c([N+](=O)[O-])c1Cl	Fulfilled
CN(C)Cc1ccc(NCCCCCCN2C[C@H](O)[C@@H](O)[C@H](O)[C@H]2CO)c(C(=O)O)c1	Not fulfilled
[N-]=[N+]=Nc1ccc(NCCN2CC(OCCN3C[C@H](O)[C@@H](O)[C@H](O)[C@H]3CO)C2)c([N+](=O)[O-])c1	Fulfilled
CS(=O)(=O)c1cc(NCc2ccc(CN3C[C@H](O)[C@@H](O)[C@H](O)[C@H]3CO)cc2)cc(N2CCOCC2)c1	Not fulfilled

Field: next molecule
Tell me whether pIC50 is at least 5 here: N#Cc1cc(NCc2cccc(CN3C[C@H](O)[C@@H](O)[C@H](O)[C@H]3CO)c2)cc(C2=COCCO2)c1
Not fulfilled

----------
Biological target: recombinant human GAA (acid alpha-glucosidase) (Homo sapiens, UniProt P10253)
Assay: Acid alpha-glucosidase (GAA) assay (4-methylumbelliferyl-alpha-D-pyranoside substrate, fluorescence)
reported endpoint: log10 IC50 (log10 of the value in nM)
Hi team, quick reminder: these entries are log10 of IC50 (nM).

OC[C@@H]1[C@@H](O)[C@H](O)[C@@H](O)CN1CCCCCCNc1cc(-c2cccnn2)cc(C2CC2)c1	1.81
Cc1cc(NCc2cnc(CN3C[C@H](O)[C@@H](O)[C@H](O)[C@H]3CO)cn2)cc(-c2ccc[nH]2)c1	1.95

Quickly give me recorded log10 IC50 for O=[N+]([O-])c1cc(-c2cccnn2)ccc1NCc1ccc(CN2C[C@H](O)[C@@H](O)[C@H](O)[C@H]2CO)cc1
1.40

----------
Target: rat maltase (partially purified alpha-glucosidase from intestinal rat powder)
Assay: Intestinal alpha-glucosidase assay, maltose substrate (Glucose GO Kit)
pIC50: −log10 of the molar value.
reported endpoint: pIC50

Below are worked cases with known answers.
Nc1ccc(NCCc2ccccc2CCN2C[C@H](O)[C@@H](O)[C@H](O)[C@H]2CO)c([N+](=O)[O-])c1Cl [Compound 1239]	> 9.00
O=[N+]([O-])c1cc(N2CCOCC2)ccc1NCc1ccc(CN2C[C@@H](O)[C@H](O)[C@@H](O)[C@@H]2CO)cc1 (stereo in doubt) [Compound 1069]	> 9.00

Let us examine a further case.
Quickly give me recorded pIC50 for [N-]=[N+]=Nc1ccc(N2CC(OCCN3C[C@H](O)[C@@H](O)[C@H](O)[C@H]3CO)C2)c([N+](=O)[O-])c1 [Compound 1252]
7.43

----------
Target: recombinant human GBA (beta-glucocerebrosidase) (Homo sapiens)
Assay: Beta-glucocerebrosidase (GBA, glucosylceramidase) assay (4-methylumbelliferyl-beta-D-pyranoside substrate, fluorescence)
Type: biochemical
reported endpoint: IC50

OC[C@@H]1[C@@H](O)[C@H](O)[C@@H](O)CN1Cc1ccc(CNc2cc(-c3ncccn3)cc(C3CC3)c2)cc1	> 100 µM
Cc1cc(NCc2ccc(CN3C[C@H](O)[C@@H](O)[C@H](O)[C@H]3CO)cc2)cc(-n2nccn2)c1	> 100 µM

Let us examine a further case.
Quickly give me recorded IC50 for Cc1cc(NCc2ccc(CN3C[C@H](O)[C@@H](O)[C@H](O)[C@H]3CO)cc2)cc(C2=COCCO2)c1
> 100 µM

----------
Target: rat sucrase (partially purified alpha-glucosidase from intestinal rat powder) (Rattus norvegicus)
reported endpoint: IC50 (nM)
Give the value in nM but do not write nM after it.

OC[C@@H]1[C@@H](O)[C@H](O)[C@@H](O)CN1CCCCCCNc1cc(Cl)cc(-c2ncccn2)c1	89
COc1cc(NCCCCCCN2C[C@H](O)[C@@H](O)[C@H](O)[C@H]2CO)cc(-c2ncc[nH]2)c1	64

Let us examine a further case.
Quickly give me recorded IC50 for O=[N+]([O-])c1cc(-c2ccncc2)ccc1NCCc1ccc(CCN2C[C@H](O)[C@@H](O)[C@H](O)[C@H]2CO)cc1
63

----------
Biological target: rat sucrase (partially purified alpha-glucosidase from intestinal rat powder) (Rattus norvegicus, UniProt P23739)
Sequence (P23739 whole entry): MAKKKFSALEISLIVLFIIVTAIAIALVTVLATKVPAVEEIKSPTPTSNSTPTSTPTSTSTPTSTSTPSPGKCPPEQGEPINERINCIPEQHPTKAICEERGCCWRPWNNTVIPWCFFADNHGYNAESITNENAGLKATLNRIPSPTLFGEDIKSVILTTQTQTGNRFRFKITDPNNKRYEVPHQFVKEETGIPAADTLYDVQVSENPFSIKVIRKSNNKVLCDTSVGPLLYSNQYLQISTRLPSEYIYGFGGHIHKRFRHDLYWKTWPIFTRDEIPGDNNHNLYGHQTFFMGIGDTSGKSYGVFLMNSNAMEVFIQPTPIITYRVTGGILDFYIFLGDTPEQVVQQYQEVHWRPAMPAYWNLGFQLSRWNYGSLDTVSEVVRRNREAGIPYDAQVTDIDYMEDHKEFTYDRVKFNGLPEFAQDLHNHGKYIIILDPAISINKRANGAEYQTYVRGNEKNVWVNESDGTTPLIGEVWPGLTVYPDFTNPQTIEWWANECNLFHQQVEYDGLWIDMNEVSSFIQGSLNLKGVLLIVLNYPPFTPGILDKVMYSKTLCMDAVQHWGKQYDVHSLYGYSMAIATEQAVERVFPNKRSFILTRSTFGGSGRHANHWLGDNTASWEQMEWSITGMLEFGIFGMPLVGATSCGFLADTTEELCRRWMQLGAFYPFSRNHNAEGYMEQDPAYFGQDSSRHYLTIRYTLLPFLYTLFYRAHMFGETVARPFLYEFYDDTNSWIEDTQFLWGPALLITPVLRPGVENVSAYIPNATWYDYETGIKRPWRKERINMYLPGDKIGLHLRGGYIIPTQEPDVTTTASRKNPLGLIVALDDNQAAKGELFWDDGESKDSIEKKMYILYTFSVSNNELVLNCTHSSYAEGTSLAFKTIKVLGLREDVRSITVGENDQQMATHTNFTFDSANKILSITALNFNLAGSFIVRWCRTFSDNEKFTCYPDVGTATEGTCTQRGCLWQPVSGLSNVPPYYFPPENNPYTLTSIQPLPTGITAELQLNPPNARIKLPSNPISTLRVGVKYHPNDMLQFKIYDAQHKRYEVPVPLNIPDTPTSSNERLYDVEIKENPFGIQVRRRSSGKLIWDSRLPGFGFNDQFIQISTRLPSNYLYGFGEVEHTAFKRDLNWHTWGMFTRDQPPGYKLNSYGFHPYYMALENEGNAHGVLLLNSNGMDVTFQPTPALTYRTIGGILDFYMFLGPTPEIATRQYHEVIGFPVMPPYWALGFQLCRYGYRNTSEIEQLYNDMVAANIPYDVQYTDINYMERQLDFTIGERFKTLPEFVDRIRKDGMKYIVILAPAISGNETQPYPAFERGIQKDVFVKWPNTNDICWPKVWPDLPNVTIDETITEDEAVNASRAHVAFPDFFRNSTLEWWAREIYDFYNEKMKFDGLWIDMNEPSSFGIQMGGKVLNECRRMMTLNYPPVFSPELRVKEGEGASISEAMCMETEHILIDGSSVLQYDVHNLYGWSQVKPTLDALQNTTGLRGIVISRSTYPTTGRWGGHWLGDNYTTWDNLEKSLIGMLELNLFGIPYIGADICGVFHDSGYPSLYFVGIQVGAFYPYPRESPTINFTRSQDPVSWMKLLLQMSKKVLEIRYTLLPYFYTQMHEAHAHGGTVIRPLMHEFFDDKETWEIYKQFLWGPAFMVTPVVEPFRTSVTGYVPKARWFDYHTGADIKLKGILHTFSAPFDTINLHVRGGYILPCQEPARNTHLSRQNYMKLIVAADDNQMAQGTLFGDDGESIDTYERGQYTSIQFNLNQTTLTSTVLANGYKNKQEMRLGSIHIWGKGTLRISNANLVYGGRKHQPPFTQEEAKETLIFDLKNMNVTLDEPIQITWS
pIC50: −log10 of the molar value.
reported endpoint: pIC50

Below are worked cases with known answers.
O=[N+]([O-])c1cc(Br)ccc1NCc1ccc(CN2C[C@H](O)[C@@H](O)[C@H](O)[C@H]2CO)cc1	> 9.00
N#Cc1cc(NCc2cccc(CN3C[C@H](O)[C@@H](O)[C@H](O)[C@H]3CO)c2)cc(-c2ccc[nH]2)c1	> 9.00

Let us examine a further case.
Quickly give me recorded pIC50 for O=[N+]([O-])c1cc(C2=COCCO2)ccc1NCc1cccc(CN2C[C@H](O)[C@@H](O)[C@H](O)[C@H]2CO)c1
> 9.00

----------
Target: rat maltase (partially purified alpha-glucosidase from intestinal rat powder)
Test: Intestinal alpha-glucosidase assay, maltose substrate (Glucose GO Kit)
pIC50: −log10 of the molar value.
Measured pIC50 of individual entries

Below are worked cases with known answers.
O=[N+]([O-])c1cc(Br)ccc1NCc1ccc(CN2C[C@H](O)[C@@H](O)[C@H](O)[C@H]2CO)cc1 [Compound 1030]	> 9.00
OC[C@@H]1[C@@H](O)[C@H](O)[C@@H](O)CN1CCCCCCNc1ccc(-c2cnccn2)cc1Cl [Compound 1198]	> 9.00

Let us examine a further case.
Quickly give me recorded pIC50 for N#Cc1cc(NCc2ccc(CN3C[C@H](O)[C@@H](O)[C@H](O)[C@H]3CO)cc2)cc(C2=COCCO2)c1 [Compound 1062]
> 9.00

----------
Biological target: recombinant alpha-glucosidase I (human full-length glucosidase I, Glu 1) (Homo sapiens)
Construct: 6-His (C); made in house; host or cells: HEK-293T cells transduced with BacMam virus (virus raised in Sf9)
Sequence (Q13724 whole entry): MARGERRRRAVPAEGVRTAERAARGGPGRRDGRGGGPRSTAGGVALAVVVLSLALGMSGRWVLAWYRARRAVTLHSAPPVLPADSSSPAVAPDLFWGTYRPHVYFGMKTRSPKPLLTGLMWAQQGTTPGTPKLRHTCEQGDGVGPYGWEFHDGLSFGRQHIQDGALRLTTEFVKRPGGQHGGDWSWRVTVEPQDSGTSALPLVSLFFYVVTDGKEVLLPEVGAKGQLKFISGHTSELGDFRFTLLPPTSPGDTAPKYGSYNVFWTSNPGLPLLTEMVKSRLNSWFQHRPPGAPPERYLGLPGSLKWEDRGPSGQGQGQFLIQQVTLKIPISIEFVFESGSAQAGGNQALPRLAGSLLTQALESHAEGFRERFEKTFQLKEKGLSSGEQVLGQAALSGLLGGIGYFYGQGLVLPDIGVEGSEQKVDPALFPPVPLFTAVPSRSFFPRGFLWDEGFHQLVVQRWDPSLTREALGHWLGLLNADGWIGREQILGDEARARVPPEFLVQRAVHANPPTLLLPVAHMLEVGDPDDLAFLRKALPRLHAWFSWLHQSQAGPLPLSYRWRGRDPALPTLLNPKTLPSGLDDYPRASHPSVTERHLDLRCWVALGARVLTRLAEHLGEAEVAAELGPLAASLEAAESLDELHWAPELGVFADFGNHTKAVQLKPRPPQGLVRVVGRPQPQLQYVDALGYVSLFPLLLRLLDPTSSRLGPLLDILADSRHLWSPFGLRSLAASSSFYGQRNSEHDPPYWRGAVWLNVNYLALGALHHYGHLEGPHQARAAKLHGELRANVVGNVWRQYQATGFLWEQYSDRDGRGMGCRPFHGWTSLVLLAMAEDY
Experiment: Alpha-glucosidase I assay (Amplex Red glucose detection, synthetic trisaccharide substrate)
Type: biochemical
Details: Glucosidase 1; read-out: Glu 1 IC50
reported endpoint: IC50 (nM)
Give the value in nM but do not write nM after it.

Below are worked cases with known answers.
Cc1cc(NCc2cccc(CN3C[C@H](O)[C@@H](O)[C@H](O)[C@H]3CO)c2)cc(-c2ccc[nH]2)c1	9
OC[C@@H]1[C@@H](O)[C@H](O)[C@@H](O)CN1CCCCCCNc1ccc(-c2ncccn2)cc1C(F)(F)F	32
Cc1cc(NCc2cccc(CN3C[C@H](O)[C@@H](O)[C@H](O)[C@H]3CO)c2)cc(N2CCOCC2)c1	93
Cc1cc(CN2CCOCC2)cc(NCCCCCCN2C[C@H](O)[C@@H](O)[C@H](O)[C@H]2CO)c1	366
O=Cc1cc(-c2ncccn2)ccc1NCCCCCCN1C[C@H](O)[C@@H](O)[C@H](O)[C@H]1CO	84
COc1cc(NCCCCCCN2C[C@H](O)[C@@H](O)[C@H](O)[C@H]2CO)cc(-c2ncc[nH]2)c1	93
NC(=O)c1cc(-c2ncccn2)ccc1NCCCCCCN1C[C@H](O)[C@@H](O)[C@H](O)[C@H]1CO	180
[N-]=[N+]=Nc1ccc(NCCCCCCN2C[C@H](O)[C@@H](O)[C@H](O)[C@H]2CO)c(C(N)=O)c1	142
COc1cc(NCCCCCCN2C[C@H](O)[C@@H](O)[C@H](O)[C@H]2CO)cc(-c2ncccn2)c1	128
COc1cc(CN2CCCO2)cc(NCCCCCCN2C[C@H](O)[C@@H](O)[C@H](O)[C@H]2CO)c1	47

Please respond with reported IC50 (system recombinant alpha-glucosidase I (human full-length glucosidase I, Glu 1) (Homo sapiens)) for N#Cc1cc(NCc2ccc(CN3C[C@H](O)[C@@H](O)[C@H](O)[C@H]3CO)cc2)cc(N2CCOCC2)c1 .
41

Please respond with reported IC50 (system recombinant alpha-glucosidase I (human full-length glucosidase I, Glu 1) (Homo sapiens)) for OC[C@@H]1[C@@H](O)[C@H](O)[C@@H](O)CN1CCc1ccc(CCNc2cc(Cl)cc(-c3noc(C4CCC4)n3)c2)cc1 .
1160

Please respond with reported IC50 (system recombinant alpha-glucosidase I (human full-length glucosidase I, Glu 1) (Homo sapiens)) for N#Cc1cc(Br)cc(NCc2cccc(CN3C[C@H](O)[C@@H](O)[C@H](O)[C@H]3CO)c2)c1 .
15

Please respond with reported IC50 (system recombinant alpha-glucosidase I (human full-length glucosidase I, Glu 1) (Homo sapiens)) for O=S(=O)(Nc1cc(-c2ncccn2)ccc1NCCCCCCN1C[C@H](O)[C@@H](O)[C@H](O)[C@H]1CO)C1CC1 .
169

Please respond with reported IC50 (system recombinant alpha-glucosidase I (human full-length glucosidase I, Glu 1) (Homo sapiens)) for CN(C)Cc1ccc(NCCCCCCN2C[C@H](O)[C@@H](O)[C@H](O)[C@H]2CO)c(C(F)(F)F)c1 .
330

Please respond with reported IC50 (system recombinant alpha-glucosidase I (human full-length glucosidase I, Glu 1) (Homo sapiens)) for OC[C@@H]1[C@@H](O)[C@H](O)[C@@H](O)CN1CCCCCCNc1cc(-c2ncccn2)cc(C2CC2)c1 .
163

Please respond with reported IC50 (system recombinant alpha-glucosidase I (human full-length glucosidase I, Glu 1) (Homo sapiens)) for OC[C@@H]1[C@@H](O)[C@H](O)[C@@H](O)CN1CCCCCCNc1ccc(-c2ncccn2)cc1Cl .
19
